# measured-on: Protein phosphatase EYA2 (Homo sapiens) (UniProt O00167)
# Sequence (O00167 whole entry, looked up): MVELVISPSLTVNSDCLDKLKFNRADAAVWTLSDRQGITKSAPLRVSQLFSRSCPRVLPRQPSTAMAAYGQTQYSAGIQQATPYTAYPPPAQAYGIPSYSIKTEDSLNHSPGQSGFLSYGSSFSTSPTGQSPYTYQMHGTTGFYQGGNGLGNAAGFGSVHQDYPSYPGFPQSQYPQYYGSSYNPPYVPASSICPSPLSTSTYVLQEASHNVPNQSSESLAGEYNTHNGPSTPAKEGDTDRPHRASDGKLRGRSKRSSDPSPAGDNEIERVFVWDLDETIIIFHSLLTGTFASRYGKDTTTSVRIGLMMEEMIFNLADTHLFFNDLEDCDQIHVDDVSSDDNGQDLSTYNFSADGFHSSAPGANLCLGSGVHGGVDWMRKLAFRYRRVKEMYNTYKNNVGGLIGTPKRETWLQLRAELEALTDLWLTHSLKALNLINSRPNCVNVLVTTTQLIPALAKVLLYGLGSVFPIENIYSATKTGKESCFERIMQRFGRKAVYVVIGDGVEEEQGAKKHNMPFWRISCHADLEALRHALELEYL
# assay-overview: qHTS for Inhibitors of the Phosphatase Activity of Eya2: Confirmatory Assay for Cherry-picked Compounds; further: nearly all actives have a fitted effect of over 65% in size
# recorded-conditions: purified EYA2 phosphatase activity, qHTS confirmation; series mostly up to 46.1 µM
About 460 (35%) of roughly 1,300 compounds were called active. Inconclusive results (about 39%) are left out. The call rests on the fitted dose curve; in most records, active means well fitted inhibition curve with a large enough effect; inconclusive means small, poorly fitted or top-dose-only effect; inactive means flat fitted curve, though single readings scatter. The list shows a part of the results.
Lab note: assign the record to one of TRUE for active, FALSE for inactive

Please indicate how the test categorized "CCC(=O)Nc1nc2c(OC)ccc(OC)c2s1" .
FALSE

Try the compound "CC(=O)Nc1ccc2nc(C3CC3)n(Cc3ccc(Cl)cc3)c(=O)c2c1"
FALSE

And then "CC(C)c1ccc2oc(-c3ccc(NC(=O)c4ncn[nH]4)cc3)nc2c1" , what is it?
TRUE

Next compound: "Cc1cc(/C=C2\C=Cc3ccccc32)ccc1N(C)C"
TRUE

What do you get for "O=C(O)c1ccccc1-c1ccccc1C(=O)Nc1ccc2oc(=O)c3ccccc3c2c1" ?
TRUE
